# Dmax per record follows
test target: Cbl-B (Homo sapiens, UniProt Q13191)
Construct: MSD-Based Assay for Degradation of Cbl-B in THP-1 Cells; endogenous in cells; host or cells: THP-1 (title) / Jurkat (protocol text)
Sequence (Q13191 whole entry): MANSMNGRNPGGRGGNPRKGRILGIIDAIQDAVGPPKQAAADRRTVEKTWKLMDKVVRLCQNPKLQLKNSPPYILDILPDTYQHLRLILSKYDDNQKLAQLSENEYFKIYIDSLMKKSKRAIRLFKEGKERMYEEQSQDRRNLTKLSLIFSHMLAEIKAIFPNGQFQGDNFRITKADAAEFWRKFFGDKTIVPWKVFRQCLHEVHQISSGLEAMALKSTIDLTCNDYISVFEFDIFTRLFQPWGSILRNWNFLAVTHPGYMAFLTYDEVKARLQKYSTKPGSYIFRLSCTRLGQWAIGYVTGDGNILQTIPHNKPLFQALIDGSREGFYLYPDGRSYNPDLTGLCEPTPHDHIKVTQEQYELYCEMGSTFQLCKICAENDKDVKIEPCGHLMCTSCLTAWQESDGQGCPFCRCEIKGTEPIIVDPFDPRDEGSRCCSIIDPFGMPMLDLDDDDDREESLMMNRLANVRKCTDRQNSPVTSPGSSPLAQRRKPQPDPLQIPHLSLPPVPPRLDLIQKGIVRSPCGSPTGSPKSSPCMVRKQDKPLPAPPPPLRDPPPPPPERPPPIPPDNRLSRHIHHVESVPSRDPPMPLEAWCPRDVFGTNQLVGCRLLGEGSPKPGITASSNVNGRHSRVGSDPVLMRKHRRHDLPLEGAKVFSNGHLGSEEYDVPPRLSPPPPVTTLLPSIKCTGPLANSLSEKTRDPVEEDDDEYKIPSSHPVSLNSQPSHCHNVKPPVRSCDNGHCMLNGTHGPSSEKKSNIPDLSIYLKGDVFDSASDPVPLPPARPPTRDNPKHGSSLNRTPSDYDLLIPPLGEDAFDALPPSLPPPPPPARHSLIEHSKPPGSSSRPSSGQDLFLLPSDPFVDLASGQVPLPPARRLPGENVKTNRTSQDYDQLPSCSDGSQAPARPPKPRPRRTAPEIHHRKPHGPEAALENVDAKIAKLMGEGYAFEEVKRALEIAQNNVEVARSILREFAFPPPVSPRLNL
test method notes: MSD-based assay for degradation of Cbl-B in THP-1 cells
Type: cell-based
experimental parameters: Cbl-B degradation, Jurkat cells seeded (heading: THP-1 cells), 24 hours incubation, MSD readout; read-out: Dmax
Experimental: MSD-Based Assay for Degradation of Cbl-B in THP-1 Cells Assay plates were then shaken at 600 rpm for 5 minutes, followed by incubation for 24 hours in the 37° C. TC incubator. […] Cell debris was then spun down at maximum speed (about 3200 g) for 30 min and lysates frozen in the −80° C. fridge. […] Plates were again washed 3× with 150 ul/well of 1×TBST, followed by addition of 1×MSD reading buffer (MSD, R92TC-2), 150 ul/well, diluted from 4× with water. […]

Recorded Dmax of Cn1cnnc1[C@@H](c1cccc(-n2cc3c(C(F)(F)F)cc(CN4CCC[C@H](OC5CCN(C(=O)c6ccc(N7CCN(c8ccc9c(c8)CN([C@H]8CCC(=O)NC8=O)C9=O)CC7)cc6)CC5)C4)cn3c2=O)c1)C1CCC1 (single isomer, unassigned) [Compound 196] , please.
> 70%

More entries:
Please report the recorded Dmax for CO[C@H]1C[C@@](c2cccc(-n3cc4c(C(F)(F)F)cc(CN5CCC(OCCN6CCC(CN7CCN(c8ccc9c(c8)CN([C@H]8CCC(=O)NC8=O)C9=O)CC7)CC6)CC5)cn4c3=O)c2)(c2nncn2C)C1 [Compound 74] .
50 to 70%

Would you kindly share the measured Dmax for CO[C@H]1C[C@](c2cccc(-n3cc4c(C(F)(F)F)cc(CN5CCC(OCc6ccc(CN7CCN(c8ccc9c(c8)CN([C@@H]8CCC(=O)NC8=O)C9=O)CC7)cc6)CC5)cn4c3=O)c2)(c2nncn2C)C1 (single isomer, unassigned) [Compound 231] ?
30 to 50%

Please look up its Dmax: Cn1cnnc1CC1(c2cccc(-n3cc4c(C(F)(F)F)cc(CN5CCN(CC(=O)N6CCC(CN7CCN(c8ccc9c(c8)CN([C@H]8CCC(=O)NC8=O)C9=O)CC7)CC6)CC5)cn4c3=O)c2)COC1 (single isomer, unassigned) [Compound 134]
> 70%

Item Cn1cnnc1[C@@H](c1cccc(N2Cc3c(cc(CN4CCC[C@H](OCc5ccc(CC6CCN(c7ccc8c(c7)CN([C@@H]7CCC(=O)NC7=O)C8=O)CC6)cc5)C4)cc3C(F)(F)F)C2=O)c1)C1CCC1 (single isomer, unassigned) [Compound 189] has what recorded Dmax?
< 30%

Need Dmax of Cn1cnnc1[C@@H](c1cccc(-n2cc3c(C(F)(F)F)cc(CN4CCN(CCN5CCC(CN6CCN(c7ccc8c(c7)CN([C@@H]7CCC(=O)NC7=O)C8=O)CC6)CC5)CC4)cn3c2=O)c1)C1CCC1 [Compound 63] , thanks.
30 to 50%

----------
Here, each record is paired with measured Dmax data.
test target: Cbl-B (Homo sapiens, UniProt Q13191)
Construct: MSD-Based Assay for Degradation of Cbl-B in THP-1 Cells; endogenous in cells; host or cells: THP-1 (title) / Jurkat (protocol text)
test method notes: MSD-based assay for degradation of Cbl-B in THP-1 cells
Type: cell-based
experimental parameters: Cbl-B degradation, Jurkat cells seeded (heading: THP-1 cells), 24 hours incubation, MSD readout; read-out: Dmax

Query (compound): Cn1cnnc1[C@@H](c1cccc(-n2cc3c(C(F)(F)F)cc(CN4CCC(O[C@@H]5CCCN(C(=O)c6ccc(N7CCN(c8ccc9c(c8)CN([C@H]8CCC(=O)NC8=O)C9=O)CC7)cc6)C5)CC4)cn3c2=O)c1)C1CCC1 (single isomer, unassigned) ; field requested: Dmax
> 70%

Next:
Return reported Dmax; argument: Cn1cnnc1CC1(c2cccc(-n3cc4c(C(F)(F)F)cc(CN5CCC(OCCOCc6ccc(CNc7cccc8c7C(=O)N(C7CCC(=O)NC7=O)C8=O)cc6)CC5)cn4c3=O)c2)COC1 (centres unmarked)
< 30%

What value of measured Dmax is listed for `CN(CC1CCN(Cc2cc3c(c(C(F)(F)F)c2)CN(c2cccc([C@H](c4nncn4C)C4CCC4)c2)C3=O)CC1)C(=O)c1ccc(N2CCN(c3ccc4c(c3)CN([C@@H]3CCC(=O)NC3=O)C4=O)CC2)cc1` ?
50 to 70%

What Dmax value was documented for this compound, `CO[C@H]1C[C@](c2cccc(-n3cc4c(C(F)(F)F)cc(CN5CCC(COCc6ccc(CN7CCN(c8ccc9c(c8)CN([C@H]8CCC(=O)NC8=O)C9=O)CC7)cc6)CC5)cn4c3=O)c2)(c2nncn2C)C1` ?
50 to 70%

Query: Dmax; subject: CO[C@H]1C[C@](c2cccc(-n3cc4c(C(F)(F)F)cc(CN5CCC(OCc6ccc(CN7CCN(c8ccc9c(c8)CN([C@H]8CCC(=O)NC8=O)C9=O)CC7)cc6)CC5)cn4c3=O)c2)(c2nncn2C)C1 (single isomer, unassigned)
> 70%

Recorded Dmax of Cn1cnnc1[C@@H](c1cccc(-n2cc3c(C(F)(F)F)cc(CN4CCC[C@@H](OC5CCN(C(=O)c6ccc(N7CCN(c8ccc9c(c8)CN([C@@H]8CCC(=O)NC8=O)C9=O)CC7)cc6)CC5)C4)cn3c2=O)c1)C1CCC1 (single isomer, unassigned) , please.
50 to 70%

If you can, please state the reported Dmax value of `CN(CC1CCN(Cc2cc3c(c(C(F)(F)F)c2)CN(c2cccc([C@H](c4nncn4C)C4CCC4)c2)C3=O)CC1)C(=O)c1ccc(N2CCN(c3ccc4c(c3)CN([C@H]3CCC(=O)NC3=O)C4=O)CC2)cc1` .
> 70%

Given Cn1cnnc1[C@@H](c1cccc(-n2cc3c(C(F)(F)F)cc(CN4CCC(OCCOCc5ccc(CC6CCN(c7ccc8c(c7)CN([C@H]7CCC(=O)NC7=O)C8=O)CC6)cc5)CC4)cn3c2=O)c1)C1CCC1 (single isomer, unassigned) , state its recorded Dmax.
> 70%

What does the data say about its Dmax? Entry: Cn1cnnc1[C@@H](c1cccc(-n2cc3c(C(F)(F)F)cc(CN4CCN(C(=O)CN5CCC(CN6CCN(c7ccc8c(c7)CN([C@H]7CCC(=O)NC7=O)C8=O)CC6)CC5)CC4)cn3c2=O)c1)C1CCC1 (single isomer, unassigned)
50 to 70%

Quick one: Dmax of `Cn1cnnc1[C@@H](c1cccc(-n2cc3c(C(F)(F)F)cc(CN4CCC(CC(=O)N5CCC(c6ccc(-c7ccc8c(c7)CN([C@H]7CCC(=O)NC7=O)C8=O)cc6)CC5)CC4)cn3c2=O)c1)C1CCC1` ?
30 to 50%

Fill in: Dmax of Cn1cnnc1[C@@H](c1cccc(-n2cc3c(C(F)(F)F)cc(CN4CCC(C5CCN(C(=O)c6ccc(N7CCN(c8ccc9c(c8)CN([C@@H]8CCC(=O)NC8=O)C9=O)CC7)cc6)CC5)CC4)cn3c2=O)c1)C1CCC1 (single isomer, unassigned) is ___
< 30%

----------
test target: Cbl-B (Homo sapiens, UniProt Q13191)
Construct: MSD-Based Assay for Degradation of Cbl-B in THP-1 Cells; endogenous in cells; host or cells: THP-1 (title) / Jurkat (protocol text)
test method notes: MSD-based assay for degradation of Cbl-B in THP-1 cells
Format: cell-based
experimental parameters: Cbl-B degradation, Jurkat cells seeded (heading: THP-1 cells), 24 hours incubation, MSD readout
Recorded DC50, one value per entry.

Quick one: DC50 of CN(CCN(C)C(=O)c1cc(C(F)(F)F)c2cn(-c3cccc([C@H](c4nncn4C)C4CCC4)c3)c(=O)n2c1)C(=O)c1ccc(C2CCN(c3ccc4c(c3)CN([C@@H]3CCC(=O)NC3=O)C4=O)CC2)cc1 (single isomer, unassigned) ?
> 10 µM

Could you share which DC50 value was measured for Cn1cnnc1[C@@H](c1cccc(-n2cc3c(C(F)(F)F)cc(CN4CCN(C(=O)CN5CCC(CN6CCN(c7ccc8c(c7)CN([C@H]7CCC(=O)NC7=O)C8=O)CC6)CC5)CC4)cn3c2=O)c1)C1CCC1 (single isomer, unassigned) ?
0.03 to 0.3 µM

Please look up its DC50: Cn1cnnc1CC1(c2cccc(-n3cc4c(C(F)(F)F)cc(CN5CC[C@@H](OCCOCc6ccc(COCCNc7cccc8c7C(=O)N(C7CCC(=O)NC7=O)C8=O)cc6)C5)cn4c3=O)c2)COC1 (stereo partly shown)
0.3 to 1 µM

Next:
Could you tell me which DC50 is on file for `Cn1cnnc1CC1(c2cccc(-n3cc4c(C(F)(F)F)cc(-c5nccn5CCOCCN5CCC(CN6CCN(c7ccc8c(c7)CN([C@@H]7CCC(=O)NC7=O)C8=O)CC6)CC5)cn4c3=O)c2)COC1` ?
> 10 µM

Quick check: DC50 of `Cn1cnnc1[C@@H](c1cccc(-n2cc3c(C(F)(F)F)cc(CN4CCC(CC(=O)N5CCC(c6ccc(-c7ccc8c(c7)CN([C@H]7CCC(=O)NC7=O)C8=O)cc6)CC5)CC4)cn3c2=O)c1)C1CCC1` ?
< 0.03 µM

Fill in: DC50 of Cn1cnnc1[C@@H](c1cccc(N2Cc3c(cc(CN4CCC[C@@H](OCc5ccc(CC6CCN(c7ccc8c(c7)CN([C@@H]7CCC(=O)NC7=O)C8=O)CC6)cc5)C4)cc3C(F)(F)F)C2=O)c1)C1CCC1 (single isomer, unassigned) is ___
> 10 µM

What measured DC50 goes with Cn1cnnc1[C@@H](c1cccc(-n2cc3c(C(F)(F)F)cc(CN4CCC[C@H](OCc5ccc(CN6CCN(c7ccc8c(c7)CN([C@@H]7CCC(=O)NC7=O)C8=O)CC6)cc5)C4)cn3c2=O)c1)C1CCC1 (single isomer, unassigned) ?
> 10 µM
